Reported pEC50 is given for each of the following compounds.
Test system: isolated rat aorta
procedure-text: In vitro induction of tolerance and cross-tolerance: vasorelaxation of pre-exposed rat aortic rings
Type: cell-based
condition: Rattus norvegicus, 1 h
Hey, just a heads up that pEC50 is the negative log base 10 of the concentration in molar.

Below are worked cases with known answers.
chemical-smiles: Cc1nc(Nc2nc(C)c(CCO[N+](=O)[O-])s2)sc1CCO[N+](=O)[O-]
study-system: isolated rat aorta
pEC50: 6.60

chemical-smiles: Cc1nc(C)c(CCO[N+](=O)[O-])s1
study-system: isolated rat aorta
pEC50: 7.30

input: State the recorded pEC50 for this entry: CCc1nc(C)c(CCO[N+](=O)[O-])s1
output: 7.40

---

Tested on: isolated rat aorta
procedure-text: In vitro vasorelaxation of epinephrine-contracted rat aortic rings (CCRC)
Format: cell-based
condition: vasorelaxation, rat aortic rings contracted with 1 μM epinephrine, 10^−10 M to 10^−5 M; read-out: Concentration
pEC50 listing for selected molecules.
pEC50 is defined as minus the log10 of a concentration measured in mol/L.

Completed entries (count: 2):
molecule: Cc1nc(NC(=O)[C@@H](C)c2ccc(CC(C)C)cc2)sc1CCO[N+](=O)[O-] (stereo in doubt) [Pet-152]
readout-label: pEC50
endpoint-result: 7.30
//
molecule: Cc1nc(-c2cccnc2)sc1CCO[N+](=O)[O-] [Pet-12]
readout-label: pEC50
endpoint-result: 7.40

Now examine the next entry.
input: Given the molecule Cc1nc(-c2ccccc2)sc1CCO[N+](=O)[O-] [Pet-8] , what is its reported pEC50?
output: 7.55

---

Tested on: isolated rat aorta
procedure-text: In vitro vasorelaxation of epinephrine-contracted rat aortic rings (CCRC)
Assay type: cell-based
condition: vasorelaxation, rat aortic rings contracted with 1 μM epinephrine; given as negative log value; read-out: EC50 (converted)
readout-label: EC50

Use these answered entries as a reference point.
compound: O=[N+]([O-])OCC(CO[N+](=O)[O-])O[N+](=O)[O-] [GTN, glyceryl trinitrate, reference compound]
EC50: 28.2 nM

compound: Cc1nc(N(C)C)sc1CCO[N+](=O)[O-]
EC50: 28.2 nM

compound: CCNc1nc(C)c(CCO[N+](=O)[O-])s1
EC50: 31.6 nM

input: Entry under review: CNc1cncc(-c2nc(C)c(CCO[N+](=O)[O-])s2)n1 . Reported EC50?
output: 200 nM

input: Would you mind doing Cc1nc(-c2ccc(C(F)(F)F)cc2)sc1CCO[N+](=O)[O-] as well?
output: 79.4 nM

---

Test system: isolated rat aorta
procedure-text: In vitro vasorelaxation of epinephrine-contracted rat aortic rings (CCRC)
Assay type: cell-based
condition: vasorelaxation, rat aortic rings contracted with 1 μM epinephrine, 10^−10 M to 10^−5 M; read-out: Concentration
readout-label: pEC50
Please keep in mind that pEC50 is minus log10 of the molar concentration; only the number is needed.

Here's what some known entries look like.
molecule: Cc1nc(-c2ccc(C(F)(F)F)cc2)sc1CCO[N+](=O)[O-]
study-system: isolated rat aorta
pEC50: 7.10

molecule: O=[N+]([O-])OCC(CO[N+](=O)[O-])O[N+](=O)[O-] [GTN, glyceryl trinitrate, reference compound]
study-system: isolated rat aorta
pEC50: 7.35

molecule: CNc1cncc(-c2nc(C)c(CCO[N+](=O)[O-])s2)n1
study-system: isolated rat aorta
pEC50: 6.70

molecule: Cc1nc(NC(=O)c2cccnc2)sc1CCO[N+](=O)[O-]
study-system: isolated rat aorta
pEC50: 7.40

molecule: CCNc1nc(C)c(CCO[N+](=O)[O-])s1
study-system: isolated rat aorta
pEC50: 7.50

input: GET /values?readout=pEC50&item= Cc1nc(N(C)C)sc1CCO[N+](=O)[O-]
output: 7.55
